biological target: BoNT/A LC (Clostridium botulinum, UniProt P0DPI0); assay: biochemical; format: biochemical
Sequence (P0DPI0 2-448 limits assumed): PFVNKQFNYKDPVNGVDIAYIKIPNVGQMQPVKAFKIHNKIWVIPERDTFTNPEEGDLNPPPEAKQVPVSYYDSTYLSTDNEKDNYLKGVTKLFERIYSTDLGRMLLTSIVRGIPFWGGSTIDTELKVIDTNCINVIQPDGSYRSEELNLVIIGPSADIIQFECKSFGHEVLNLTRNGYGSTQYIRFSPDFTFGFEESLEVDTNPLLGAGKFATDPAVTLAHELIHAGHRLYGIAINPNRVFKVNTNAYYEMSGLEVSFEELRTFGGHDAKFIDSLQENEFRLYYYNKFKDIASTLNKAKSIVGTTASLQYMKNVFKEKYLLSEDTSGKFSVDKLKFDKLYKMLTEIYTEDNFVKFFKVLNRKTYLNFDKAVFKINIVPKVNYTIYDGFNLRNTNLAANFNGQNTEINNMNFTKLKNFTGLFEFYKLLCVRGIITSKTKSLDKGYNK
Outcome: True for inhibition at 20 µM of at least 40%; False for anything lower.

Sample answers from the record:
compound: CCN(CC)CCCC(C)Nc1ccnc2cc(Cl)ccc12 (racemic) [Chloroquine (racemic), Chloroquine]
class: False
--
compound: Nc1c(/C=C/c2cc3cc(C4=NCCN4)ccc3o2)[nH]c2cc(C3=NCCN3)ccc12
class: True
--
compound: O=C(O)c1c(I)c(I)c(I)c(I)c1C1c2ccc(O)cc2Oc2cc(O)ccc21
class: True

// inclusive: inhibition at 20 µM at least 40%? input: CCN(CC)CCCC(C)Nc1c2ccc(Cl)cc2nc2ccc(OC)cc12 (racemic) [Quinacrine (racemic), Quinacrine]
False

Query `CCOc1ccc2c(ccc(/C=C/c3ccc4c(C)ccnc4c3O)[n+]2C)c1` next
True

Queued: `COc1cc(C)cc2c(-c3c(O)cc(O)c4c3C[C@@H](C)N[C@@H]4C)cc(-c3cc(-c4c(O)cc(O)c5c4C[C@@H](C)N[C@@H]5C)c4cc(C)cc(OC)c4c3O)c(O)c12`
True

Also `O=[N+]([O-])c1cc(Cc2cc([N+](=O)[O-])c3cccnc3c2O)c(O)c2ccccc12` , if possible.
True

Consider next the compound `CCN(CC)Cc1cc(Nc2ccnc3cc(Cl)ccc23)ccc1O` in the same way.
False

The reported measurements were obtained from patent US7574340B2.
